# assayRemarks: Confirmatory qHTS to identify inhibitors of SARS-CoV-2 cell entry (AID 1645844); also: nearly all actives have a fitted effect of over 45% in size
# testSettings: SARS-CoV-2 pseudotyped particle cell entry, luciferase; series mostly up to 57.2 µM
Results filed as inconclusive are left out. Calls of active or inactive are those of the source. Calls follow the shape of the full dose curve.
Labels: active, inactive

>  <compound>
CCN(CCCOc1ccc2c(Nc3cc(CC(=O)Nc4cccc(F)c4)[nH]n3)ncnc2c1)CCOP(=O)(O)O

>  <label>
active

$$$$
>  <compound>
CCCCC(=O)OCC(=O)[C@]1(O)Cc2c(O)c3c(c(O)c2[C@@H](O[C@H]2C[C@H](NC(=O)C(F)(F)F)[C@H](O)[C@H](C)O2)C1)C(=O)c1c(OC)cccc1C3=O

>  <label>
active

$$$$
>  <compound>
CC(C)c1cc(CNc2nc(Nc3cc(C4CC4)[nH]n3)cc(N3CCN(C)CC3)n2)on1

>  <label>
active

$$$$
>  <compound>
CO[C@H]1CCC(O[C@H]2C[C@H]([C@]3(C)CC[C@]4(C[C@H](O)[C@@H](C)[C@@H]([C@@H](C)/C=C(\C)C(=O)[C@H](C)C[C@H](C)C(=O)O)O4)O3)O[C@]3(O[C@@H]([C@H]4O[C@@](O)(CO)[C@H](C)C[C@@H]4C)C[C@@H]3C)[C@@H]2C)O[C@@H]1C (stereo not given in full)

>  <label>
active

$$$$
>  <compound>
O=C(Nc1ccnc(NC(=O)C2CC2)c1)c1c(Cl)cccc1Cl

>  <label>
active

$$$$
>  <compound>
CO[C@H]1C[C@H](O[C@@H]2[C@H](C)O[C@H](O[C@@H]3/C(C)=C/C[C@@H]4C[C@@H](C[C@]5(C=C[C@H](C)[C@@H](C6CCCCC6)O5)O4)OC(=O)[C@@H]4C=C(C)C(O)[C@H]5OC/C(=C\C=C\[C@@H]3C)[C@]54O)C[C@@H]2OC)O[C@@H](C)[C@@H]1O (stereo not given in full)

>  <label>
active

$$$$
>  <compound>
Cc1c[nH]c2ncnc(N3CCC(CN)(C(=O)Nc4cccc(OC(=O)N(C)C)c4)CC3)c12

>  <label>
inactive

$$$$
>  <compound>
COc1ccc(-c2ccc3c(N4CCOC[C@@H]4C)nc(N4CCOC[C@@H]4C)nc3n2)cc1CO

>  <label>
active

$$$$
>  <compound>
CCN(CC)Cc1cc(Nc2ccnc3cc(Cl)ccc23)ccc1O

>  <label>
active

$$$$
>  <compound>
Cc1cnc(Nc2ccc(F)cc2Cl)nc1-c1c[nH]c(C(=O)NC(CO)c2cccc(Cl)c2)c1 (stereo not given)

>  <label>
active

$$$$
>  <compound>
C=CC(=O)Nc1cccc(Nc2nc(Nc3ccc(OCCOC)cc3)ncc2F)c1

>  <label>
active

$$$$
>  <compound>
COc1cc(N2CCC(N3CCN(C)CC3)CC2)ccc1Nc1ncc(Cl)c(Nc2ccccc2P(C)(C)=O)n1

>  <label>
active

$$$$
>  <compound>
O=c1c(-c2ccc(O)cc2)coc2c([C@@H]3O[C@H](CO)[C@@H](O)[C@H](O)[C@H]3O)c(O)ccc12

>  <label>
inactive

$$$$
>  <compound>
C=CC(=O)N1CC[C@@H](Oc2nc(Nc3ccc(N4CCC(N5CCN(C)CC5)CC4)cc3)c(C(N)=O)nc2CC)C1

>  <label>
active

$$$$
>  <compound>
NCCNc1ccc(NCCN)c2c1C(=O)c1ccncc1C2=O

>  <label>
active

$$$$

====

# assayRemarks: Cell Viability - LYMP1-003 - Assay at 40 hr (AID 964); also: nearly all actives have a fitted effect of over 60% in size
# testSettings: LYMP1-003 lymphoblastoid viability; series mostly up to 92.2 µM
Results filed as inconclusive are left out. Active and inactive are the calls of the source. Calls follow the shape of the dose curve; as a rule, active = well fitted cell-killing curve with a large enough effect; inconclusive = small, poorly fitted or top-dose-only effect; inactive = flat fitted curve, though single readings scatter.
Classes used: Yes (active), No (inactive)

>  <molecule>
c1ccc(N=Nc2ccccc2)cc1

>  <label>
No

$$$$
>  <molecule>
CNC(=O)O/N=C/C(C)(C)SC

>  <label>
No

$$$$
>  <molecule>
O=C(Cl)/C=C/C(=O)Cl

>  <label>
No

$$$$
>  <molecule>
Brc1ccccc1

>  <label>
No

$$$$
>  <molecule>
Cc1ccc([N+](=O)[O-])cc1C

>  <label>
No

$$$$
>  <molecule>
CCCC(=O)Cl

>  <label>
No

$$$$
>  <molecule>
CN=C=S

>  <label>
No

$$$$
>  <molecule>
CCCOC(=O)c1ccccc1C(=O)OCCC

>  <label>
No

$$$$
>  <molecule>
CCC[CH2][Sn]([Cl])([Cl])[Cl]

>  <label>
No

$$$$
>  <molecule>
CCOCN(C(=O)CCl)c1c(C)cccc1CC

>  <label>
Yes

$$$$
>  <molecule>
OCC1CO1 (stereo not given)

>  <label>
No

$$$$
>  <molecule>
Cc1cccc(C#N)c1

>  <label>
No

$$$$
>  <molecule>
CCNc1nc(Cl)nc(NC(C)C)n1

>  <label>
No

$$$$
>  <molecule>
C=CCc1ccc2c(c1)OCO2

>  <label>
No

$$$$
>  <molecule>
O=C1C(Cl)=C(Cl)C(=O)C(Cl)=C1Cl

>  <label>
Yes

$$$$
>  <molecule>
COC1=CC(=O)O[C@@H](/C=C/c2ccc3c(c2)OCO3)C1

>  <label>
No

$$$$
>  <molecule>
c1ccc2c(c1)CCCC2

>  <label>
No

$$$$
>  <molecule>
CCCCCCCCCc1ccc(O)cc1

>  <label>
No

$$$$
>  <molecule>
C=CCOC(=O)c1ccccc1N

>  <label>
No

$$$$
>  <molecule>
C=CCOC(C)=O

>  <label>
No

$$$$
>  <molecule>
COC1=CC(=O)OC(CCc2ccccc2)C1 (stereo not given)

>  <label>
No

$$$$
>  <molecule>
CCSC(=O)Cl

>  <label>
No

$$$$
>  <molecule>
CC(C)(OO)c1ccccc1

>  <label>
No

$$$$
>  <molecule>
C=CC(N)=O

>  <label>
No

$$$$
>  <molecule>
NC(=S)Nc1ccccc1

>  <label>
No

$$$$
>  <molecule>
CC(C)(c1ccccc1)c1ccc(O)cc1

>  <label>
No

$$$$
>  <molecule>
CC(O)CCl (stereo not given)

>  <label>
No

$$$$
>  <molecule>
Cc1ccc2ccccc2c1

>  <label>
No

$$$$
>  <molecule>
CC(C)(C)OOC(C)(C)C

>  <label>
No

$$$$
>  <molecule>
Nc1ccccc1Cl

>  <label>
No

$$$$
>  <molecule>
C=CCc1ccc(OC)cc1

>  <label>
No

$$$$
>  <molecule>
Clc1nc(Cl)nc(Nc2ccccc2Cl)n1

>  <label>
No

$$$$
>  <molecule>
ClC1=C(Cl)C2(Cl)C3C4CC(C5OC45)C3C1(Cl)C2(Cl)Cl (stereo not given)

>  <label>
Yes

$$$$
>  <molecule>
CC(Cl)Cl

>  <label>
No

$$$$
>  <molecule>
ClCBr

>  <label>
No

$$$$
>  <molecule>
Nc1ccc(Br)cc1

>  <label>
No

$$$$
>  <molecule>
CCCCCCCC(=O)Cl

>  <label>
No

$$$$
>  <molecule>
O=NN(c1ccccc1)c1ccccc1

>  <label>
No

$$$$
>  <molecule>
O=C(Cl)C(Cl)(Cl)Cl

>  <label>
No

$$$$
>  <molecule>
C=CC(=C)C

>  <label>
No

$$$$

====

# experimentalSystem: Cytochrome P450 1A2 (Homo sapiens) (UniProt P05177)
# Sequence (P05177 whole entry, looked up): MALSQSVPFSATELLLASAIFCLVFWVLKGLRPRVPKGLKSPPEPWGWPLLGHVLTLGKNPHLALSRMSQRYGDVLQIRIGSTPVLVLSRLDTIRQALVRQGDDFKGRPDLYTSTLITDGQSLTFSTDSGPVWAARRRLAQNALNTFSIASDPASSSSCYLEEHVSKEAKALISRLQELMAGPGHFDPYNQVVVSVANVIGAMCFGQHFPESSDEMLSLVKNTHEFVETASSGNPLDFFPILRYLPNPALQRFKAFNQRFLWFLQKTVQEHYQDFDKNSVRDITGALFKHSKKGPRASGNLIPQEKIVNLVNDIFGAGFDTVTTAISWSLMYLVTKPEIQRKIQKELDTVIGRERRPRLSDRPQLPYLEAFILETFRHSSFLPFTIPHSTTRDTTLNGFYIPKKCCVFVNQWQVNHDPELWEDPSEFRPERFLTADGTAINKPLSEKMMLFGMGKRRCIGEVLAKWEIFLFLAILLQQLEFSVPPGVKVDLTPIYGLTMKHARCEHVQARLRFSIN
# assayRemarks: p450-cyp1a2 (AID 410)
# testSettings: recombinant CYP1A2, luciferin-ME demethylation, luminescence; series mostly up to 25.6 µM
Records with an inconclusive call do not appear. The source made the active and inactive calls. Calls come from the whole dose curve.
Classes used: Yes for active, No for inactive

>  <compoundSmiles>
N#Cc1ccc(CN2CCC3(CC2)CCN(C(=O)Oc2ccccc2)CC3)cc1

>  <label>
No

$$$$
>  <compoundSmiles>
c1ccc(CN2CCCC3(CCNCC3)C2)cc1

>  <label>
No

$$$$
>  <compoundSmiles>
CCNC[C@H](O)c1cccc(O)c1

>  <label>
No

$$$$
>  <compoundSmiles>
c1ccc(N2CC3(CCNCC3)C2)cc1

>  <label>
No

$$$$
>  <compoundSmiles>
O=C(Nc1ccccc1)N1CC[C@@]2(CCCN(C(=O)Oc3ccccc3)C2)C1

>  <label>
Yes

$$$$

====

# experimentalSystem: Retinoic acid receptor RXR-alpha (Homo sapiens) (UniProt P19793)
# Sequence (P19793 whole entry, looked up): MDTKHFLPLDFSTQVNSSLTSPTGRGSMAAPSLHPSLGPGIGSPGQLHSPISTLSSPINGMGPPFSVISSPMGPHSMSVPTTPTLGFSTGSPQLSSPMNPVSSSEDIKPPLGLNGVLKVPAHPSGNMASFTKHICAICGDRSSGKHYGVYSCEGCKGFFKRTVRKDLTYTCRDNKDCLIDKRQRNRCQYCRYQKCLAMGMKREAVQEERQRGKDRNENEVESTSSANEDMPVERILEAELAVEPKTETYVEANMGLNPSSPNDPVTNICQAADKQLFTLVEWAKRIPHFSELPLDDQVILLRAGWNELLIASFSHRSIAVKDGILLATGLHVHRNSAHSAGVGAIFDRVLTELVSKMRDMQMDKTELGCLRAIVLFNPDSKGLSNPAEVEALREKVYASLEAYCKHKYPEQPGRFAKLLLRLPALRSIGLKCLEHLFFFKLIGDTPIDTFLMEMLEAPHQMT
# assayRemarks: qHTS assay for small molecule antagonists of retinoid X receptor alpha signaling (AID 588546);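 also: cells stimulated with 9-cis-retinoic acid as agonist; % is scaled to controls: 0 for no effect and ±100 for the full control effect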
# testSettings: HEK293T RXRa-UAS-bla, beta-lactamase ratio, antagonist mode
# Text: NIH Chemical Genomics Center [NCGC] U.S. Environmental Protection Agency [EPA] National Institutes of Environmental Health Sciences [NIEHS] National Toxicology Program [NTP] NCGC Assay Overview The Retinoid X receptor (RXR), a nuclear hormone receptor is expressed in liver, spleen, placenta, epidermis, central nervous system. […]
Results filed as inconclusive are left out.
Some compounds, each annotated with its measured max response.

>  <compound>
CCCSC(=O)Cl

>  <max response [%]>
25.6

$$$$
>  <compound>
C=CC(=C)C

>  <max response [%]>
-0.537

$$$$
>  <compound>
C=CCc1ccc2c(c1)OCO2

>  <max response [%]>
33.4

$$$$
>  <compound>
ClCBr

>  <max response [%]>
-1.21

$$$$
>  <compound>
N#Cc1c(Cl)cccc1Cl

>  <max response [%]>
2.12

$$$$
>  <compound>
CCCCCCCC(=O)Cl

>  <max response [%]>
17.7

$$$$
>  <compound>
C=C(C)C(=O)OCC1CO1 (stereo not drawn)

>  <max response [%]>
4.24

$$$$
>  <compound>
Nc1ccccc1Cl

>  <max response [%]>
23.6

$$$$
>  <compound>
CNC(=O)Oc1cccc2c1OC(C)(C)O2

>  <max response [%]>
-16.4

$$$$
>  <compound>
O=C(O)COc1cc(Cl)c(Cl)cc1Cl

>  <max response [%]>
-33.7

$$$$
>  <compound>
O=C(Cl)C(Cl)(Cl)Cl

>  <max response [%]>
2.98

$$$$
>  <compound>
C=CCOC(C)=O

>  <max response [%]>
2.59

$$$$
>  <compound>
COc1nc(NC(C)C)nc(NC(C)C)n1

>  <max response [%]>
-8.1

$$$$
>  <compound>
C1CCC2CCCCC2C1 (stereo not drawn)

>  <max response [%]>
-5.58

$$$$
>  <compound>
CCCCOC(=O)c1ccccc1C(=O)OCCCC

>  <max response [%]>
-10.9

$$$$
>  <compound>
CC(Cl)Cl

>  <max response [%]>
21.2

$$$$
>  <compound>
CCc1cccc(C)c1N(C(=O)CCl)C(C)COC (stereo not drawn)

>  <max response [%]>
-18.8

$$$$
>  <compound>
CC(C)N1C(=O)c2ccccc2NS1(=O)=O

>  <max response [%]>
0.0964

$$$$
>  <compound>
CNC(=O)N(C)c1nnc(C(C)(C)C)s1

>  <max response [%]>
-28.5

$$$$
>  <compound>
c1ccc2c(c1)CCCC2

>  <max response [%]>
7.45

$$$$
>  <compound>
C/C=C/c1ccc2c(c1)OCO2

>  <max response [%]>
-0.653

$$$$
>  <compound>
CCC(=O)Nc1ccc(Cl)c(Cl)c1

>  <max response [%]>
-5.6

$$$$
>  <compound>
CC(C)OC(=O)Nc1cccc(Cl)c1

>  <max response [%]>
4.34

$$$$
